# target: Prostaglandin E synthase (Homo sapiens, UniProt O14684)
# Sequence (O14684 whole entry): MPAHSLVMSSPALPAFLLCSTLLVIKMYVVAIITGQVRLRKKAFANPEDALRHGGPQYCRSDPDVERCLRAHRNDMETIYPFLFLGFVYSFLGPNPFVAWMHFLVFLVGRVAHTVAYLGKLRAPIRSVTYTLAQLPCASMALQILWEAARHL
# test.method.notes: Inhibition of mPGES1 in IL1-beta treated human A549 cell microsomal membrane assessed as blockade of PGH2 to PGE2 conversion after 1 min
# Format: microsomes, Microsome
readout.name: IC50 (µM)
Output spec: scalar in µM, unitless text.

# input Return IC50 (reported value) for this molecule: CC1(C)Cc2c(-c3ccccc3)c(-c3ccc(Cl)cc3)c(CC(=O)O)n2C1 [LICOFELONE]
# output 6

---

# target: Prostaglandin E synthase (Homo sapiens)
# test.method.notes: Inhibition of mPGES1 in IL1-beta treated human A549 cell microsomal membrane assessed as residual enzyme activity at 10 uM after 1 min by measuring PGE2 level using RP-HPLC method relative to control
# Format: microsomes
# test.context: Microsome
readout.name: Activity (%)
The reply should contain only the number, in %.

# input GET Activity where system = Prostaglandin E synthase (Homo sapiens) and item = CCC1(CC)Cc2c(-c3ccccc3)c(-c3ccc(Cl)cc3)c(CC(=O)NS(C)(=O)=O)n2C1
# output 38.5

# input # lookup: Prostaglandin E synthase (Homo sapiens) Activity, key = CC1(C)Cc2c(-c3ccccc3)c(-c3ccc(Cl)cc3)c(CCC(=O)O)n2C1
# output 47.4

# input Identify measured Activity obtained with Prostaglandin E synthase (Homo sapiens) for CC1(C)Cc2c(-c3ccccc3)c(-c3ccc(Cl)cc3)c(CC(=O)O)n2C1 .
# output 44.9

# input Provide Activity, recorded with Prostaglandin E synthase (Homo sapiens), of Cc1ccc(S(=O)(=O)NC(=O)Cc2c(-c3ccc(Cl)cc3)c(-c3ccccc3)c3n2CC(C)(C)C3)cc1
# output 32.2
